meta.source: patent US20210130436A1

- assayed system: PD-1 (PDCD1) (Homo sapiens (Human)) (UniProt Q15116)
- Sequence (Q15116 21-288): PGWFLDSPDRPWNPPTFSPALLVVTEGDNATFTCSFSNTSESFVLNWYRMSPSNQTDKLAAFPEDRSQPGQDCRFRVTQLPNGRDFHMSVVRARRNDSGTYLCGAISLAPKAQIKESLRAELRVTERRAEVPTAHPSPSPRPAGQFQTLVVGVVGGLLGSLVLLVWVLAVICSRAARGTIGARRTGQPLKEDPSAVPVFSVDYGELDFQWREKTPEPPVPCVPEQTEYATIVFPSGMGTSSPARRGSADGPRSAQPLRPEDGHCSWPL
- assay method text: cell-based or functional assay
result type: IFN gamma levels pg/mL (MLR) (pg/mL)

PD-L2 I13V/H15Q/S39I/E44D/S67L IgV-Fc (Fc fusion, not shown: a dimerising Fc or GST) LFTVTVPKELYIVEQGSNVTLECNFDTGSHVNLGAITAILQKVDNDTSPHRERATLLEEQLPLGKALFHIPQVQVRDEGQYQCIIIYGVAWDYKYLTLKVKA : 1260
PD-L2 H15Q/T47A/S67L/R76G/Q82R/V89D IgV-Fc (Fc fusion, not shown: a dimerising Fc or GST) LFTVTVPKELYIIEQGSNVTLECNFDTGSHVNLGAITASLQKVENDASPHRERATLLEEQLPLGKALFHIPQVQVGDEGQYRCIIIYGDAWDYKYLTLKVKA : 1100
PD-L2 I13V/S67L/V89D IgV-Fc (Fc fusion, not shown: a dimerising Fc or GST) LFTVTVPKELYIVEHGSNVTLECNFDTGSHVNLGAITASLQKVENDTSPHRERATLLEEQLPLGKALFHIPQVQVRDEGQYQCIIIYGDAWDYKYLTLKVKA : 868
PD-L2 I13V/H15Q/T47A/E58G/S67L/Q82R/V89D IgV-Fc (Fc fusion, not shown: a dimerising Fc or GST) LFTVTVPKELYIVEQGSNVTLECNFDTGSHVNLGAITASLQKVENDASPHRERATLLGEQLPLGKALFHIPQVQVRDEGQYRCIIIYGDAWDYKYLTLKVKA : 836
